TESTED TARGET: LdGSK-3 (Leishmania donovani, UniProt A6N857)
Sequence (A6N857 entry or part of it): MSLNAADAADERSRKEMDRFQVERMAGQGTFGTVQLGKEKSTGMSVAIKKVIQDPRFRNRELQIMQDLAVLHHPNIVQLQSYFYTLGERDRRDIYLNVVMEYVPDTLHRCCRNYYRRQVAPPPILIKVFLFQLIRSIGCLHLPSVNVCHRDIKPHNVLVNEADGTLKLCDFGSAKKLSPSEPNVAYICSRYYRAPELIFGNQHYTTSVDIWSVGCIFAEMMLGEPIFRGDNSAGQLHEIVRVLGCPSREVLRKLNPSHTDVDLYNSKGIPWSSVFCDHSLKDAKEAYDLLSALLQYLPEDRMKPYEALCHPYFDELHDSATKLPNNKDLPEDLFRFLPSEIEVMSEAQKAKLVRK
TEST METHOD NOTES: Inhibition of LdGSK-3 with Kinase Glo
Type: biochemical
CONDITIONS: Table S2; 10 µM
Would you mind telling me the reported % inhibition @ 10µM (initial screening on LdGSK3) of each entry?
Numbers only, in %.

Observe how each entry below is paired with its result.
                                   compound                             tested_target  readout_number
0  O=C(c1ccc(Cl)cc1)c1ccc(OC(=O)N2CCOCC2)cc1 [Compound 163]  LdGSK-3 (Leishmania donovani, UniProt A6N857)            3.10
1  Cc1cc(-c2cccc3ccccc23)nc2nc(N)nc(N)c12 [Compound 57]  LdGSK-3 (Leishmania donovani, UniProt A6N857)            6.10

Could you tell me % inhibition @ 10µM (initial screening on LdGSK3) for each of these compounds? They are listed below.
1. COc1ccc(OC)c2c(=O)c(Cc3ccccc3)c(C)[nH]c12 [Compound 110]
2. CC(C)c1sc(Cl)nc1C(=O)NCCc1nc(C(=O)Nc2ccc3c(c2)OCO3)cs1 [Compound 60]
3. COc1cc2c(cc1OC)[C@H]1[C@@H](C)c3ccc(OC)c(OC)c3CN1CC2 [Compound 130]
4. COc1cccc(-c2c(C)nn(-c3nc(N)nc(-c4ccccn4)n3)c2N)c1 [Compound 61]
5. CN(C)S(=O)(=O)c1ccc(-c2cnc(N)c(-c3nc4ccc(F)cc4[nH]3)c2)cc1 [Compound 71]
6. COc1ccc(Cl)cc1CC(=O)Nc1n[nH]c(-c2ccccn2)n1 [Compound 122]

[-0.10, 0.20, 12.85, -2.20, 74.63, 3.95]

Entry COc1cccc(CN(C)Cc2nc(N)c3c(C)c(C)sc3n2)c1 [Compound 81] has what % inhibition @ 10µM (initial screening on LdGSK3)?
6.35
